# Test target: T1, human tissue factor pathway inhibitor (TFPI) (human, UniProt P10646 29-304, limits assumed)
# T1 construct: Bought protein; also called human TFPI; hTFPI
# T1 sequence (looked up): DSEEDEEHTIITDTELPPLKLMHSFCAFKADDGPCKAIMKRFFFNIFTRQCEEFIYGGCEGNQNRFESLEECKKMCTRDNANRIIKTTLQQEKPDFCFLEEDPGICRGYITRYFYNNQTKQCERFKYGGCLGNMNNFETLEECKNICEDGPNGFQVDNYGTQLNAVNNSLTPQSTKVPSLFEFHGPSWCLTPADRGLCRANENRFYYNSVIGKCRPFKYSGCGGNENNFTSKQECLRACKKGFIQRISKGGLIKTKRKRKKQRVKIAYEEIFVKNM
# Test protocol: ELISA, Fab on coated TFPI
Quick reference for EC50 among some binders
The response must be a number in nM with no trailing unit.

Previously resolved entries follow.
>  <Binder>
TP-2A8 Fab (Fab, V domains shown, Human Fab from HuCal Gold, expressed in E. coli TG1; also called Fab-2A8) VH: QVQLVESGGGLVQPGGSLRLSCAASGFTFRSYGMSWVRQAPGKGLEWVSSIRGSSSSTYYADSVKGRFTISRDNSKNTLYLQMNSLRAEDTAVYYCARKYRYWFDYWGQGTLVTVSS VL: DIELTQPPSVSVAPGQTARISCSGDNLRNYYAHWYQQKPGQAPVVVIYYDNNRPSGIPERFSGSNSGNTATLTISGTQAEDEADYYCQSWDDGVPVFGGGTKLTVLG

>  <Measure unit>
nM

>  <EC50>
0.09

$$$$
>  <Binder>
TP-3G3 Fab (Fab, V domains shown, Human Fab from HuCal Gold, expressed in E. coli TG1) VH: QVQLVESGGGLVQPGGSLRLSCAASGFTFSSYSMSWVRQAPGKGLEWVSSISSSSSNTYYGDSVKGRFTISRDNSKNTLYLQMNSLRAEDTAVYYCARMHYKGMDIWGQGTLVTVSS VL: DIQMTQSPSSLSASVGDRVTITCRASQNIHSHLNWYQQKPGKAPKLLIYDASSLQSGVPSRFSGSGSGTDFTLTISSLQPEDFAVYYCQQYYDYPLTFGQGTKVEIKR

>  <Measure unit>
nM

>  <EC50>
33.6

$$$$

Could you now look at the following binder, please?
# EC50 lookup, item TP-2C7 Fab (Fab, V domains shown, Human Fab from HuCal Gold, expressed in E. coli TG1) VH: QVQLQQSGPGLVKPSQTLSLTCAISGDSVSSNSAAWGWIRQSPGRGLEWLGIIYYRSKWYNHYAVSVKSRITINPDTSKNQFSLQLNSVTPEDTAVYYCARSNWSGYFDYWGQGTLVTVSS VL: DIQMTQSPSSLSASVGDRVTITCRASQDIRNNLAWYQQKPGKAPKLLIYAASSLQSGVPSRFSGSGSGTDFTLTISSLQPEDFAVYYCQQRNGFPLTFGQGTKVEIKR
0.6
